molecular target: auerolysin (Staphylococcus aureus, UniProt P81177); construct: purchased BioCentrum Ltd (Kraków, Poland); experiment: Initial rate fluorescence assay, auerolysin, substrate Mca-[…](Dnp)-OH (Km, Ki); format: biochemical; settings: Ki app from the slope of the Henderson plot, 3.6 nM enzyme; r2 = 0.84; N = 16
Sequence (P81177 209-509): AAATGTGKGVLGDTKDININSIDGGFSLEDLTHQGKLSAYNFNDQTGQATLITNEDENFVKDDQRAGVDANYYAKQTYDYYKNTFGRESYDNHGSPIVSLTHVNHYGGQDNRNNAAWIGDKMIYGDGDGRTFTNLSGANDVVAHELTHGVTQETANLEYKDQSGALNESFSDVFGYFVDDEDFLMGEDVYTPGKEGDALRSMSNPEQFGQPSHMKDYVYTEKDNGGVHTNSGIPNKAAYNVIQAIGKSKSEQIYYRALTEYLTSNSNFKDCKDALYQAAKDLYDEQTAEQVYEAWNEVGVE
Measured endpoint: Ki (nM)
Answer in nM, number only, no unit symbol.

Sample CNC(=O)[C@H](Cc1c[nH]c2ccccc12)NC(=O)[C@@H](CC(=O)NO)CC(C)C [Galardin] — what was its Ki?
500

###

molecular target: recombinant human MMP-14 catalytic domain (Homo sapiens, UniProt P50281); construct: recombinant MMP-14 (catalytic domain) were from Calbiochem; purchased Calbiochem (San Diego, CA, USA); assay: Initial rate fluorescence assay, MMP-14 catalytic domain, substrate Mca-PLGLDpaAR-NH2 (Km, Ki); format: biochemical; details: read-out: Ki, Morrison equation, individual experiment
Measured endpoint: Ki (pM)
Please state the figure in pM; there is no need to write the unit.

# query: Ki of entry O=C(NO)[C@H]1[C@@H](O)[C@H](O)[C@H](O)CN1S(=O)(=O)c1ccc(Oc2ccccc2)cc1
100
